target: WT human STING isoform (Homo sapiens (Human), UniProt Q86WV6, H232R); assay: THP-1-Dual KI-hSTING-R232 reporter cell line assay; details: 24 h incubation, luminescence, normalized to ML RR-S2 CDA 40 μM; read-out: EC50 THP-1 Dual KI-hSTING-R232 cells
Sequence (Q86WV6 whole entry H232R, canonical isoform): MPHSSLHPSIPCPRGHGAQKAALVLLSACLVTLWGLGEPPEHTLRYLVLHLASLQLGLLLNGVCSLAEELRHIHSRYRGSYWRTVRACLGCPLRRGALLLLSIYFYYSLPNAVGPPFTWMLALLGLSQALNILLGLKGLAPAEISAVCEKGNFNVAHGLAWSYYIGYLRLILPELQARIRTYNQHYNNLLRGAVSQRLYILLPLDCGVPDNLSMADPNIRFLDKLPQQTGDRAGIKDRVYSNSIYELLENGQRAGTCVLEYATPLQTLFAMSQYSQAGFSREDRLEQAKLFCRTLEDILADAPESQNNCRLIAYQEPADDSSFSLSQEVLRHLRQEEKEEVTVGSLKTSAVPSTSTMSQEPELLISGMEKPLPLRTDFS
MEASURED PARAMETER: pEC50
When answering, recall that pEC50 equals minus log10 of the concentration in mol/L, and write that number alone.

A selection of reference data follows.
MOLECULE	MEASURED PARAMETER	RECORDED NUMBER
NC(=O)c1ccc2c(c1)nc(-c1c(C(=O)O)sc3cccc(Br)c13)n2CCn1c(-c2c(C(=O)O)sc3cccc(Br)c23)nc2cc(C(N)=O)ccc21 (single isomer, unassigned) [Example 11.1]	pEC50	6.76
N#Cc1cccc2sc(C(=O)O)c(-c3nc4cc(C(N)=O)ccc4n3CCn3c(-c4c(C(=O)O)sc5cccc(C#N)c45)nc4cc(C(N)=O)ccc43)c12	pEC50	5.03

--- query ---
Any idea what pEC50 was measured for NC(=O)c1ccc2c(c1)nc(-c1c(C(=O)O)sc3cccc(C(F)(F)F)c13)n2CCn1c(-c2c(C(=O)O)sc3cccc(C(F)(F)F)c23)nc2cc(C(N)=O)ccc21 (single isomer, unassigned) [Example 19.2] ? 5.44

----------
biological target: human STING (HAQ) (Homo sapiens (Human), UniProt Q86WV6, G230A/H232R/R293Q); test: Differential scanning fluorimetry (DSF), huSTING (HAQ); assay type: binding; conditions: compound 100 μM, 2 μM protein, Tm with ligand minus Tm of protein alone (1% DMSO)
Sequence (Q86WV6 149-345 G230A/H232R/R293Q): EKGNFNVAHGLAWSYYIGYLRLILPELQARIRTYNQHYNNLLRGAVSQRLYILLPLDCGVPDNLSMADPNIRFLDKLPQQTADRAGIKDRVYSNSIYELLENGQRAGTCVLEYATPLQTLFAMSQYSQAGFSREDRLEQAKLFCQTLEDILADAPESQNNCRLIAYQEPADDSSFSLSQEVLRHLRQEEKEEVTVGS
Measured ΔTm at 100 µM by item
Express the result in °C but write the number alone.

A selection of reference data follows.
> print(dat)
                                   compound                                    system  measured.parameter  recorded.number
1  NC(=O)c1ccc2c(c1)nc(-c1c(C(=O)O)sc3ccccc13)n2CCn1c(-c2c(C(=O)O)sc3ccccc23)nc2cc(C(N)=O)ccc21 [Example 9]  human STING (HAQ) (Homo sapiens (Human), UniProt Q86WV6, G230A/H232R/R293Q)       ΔTm at 100 µM              6.7
2  COc1nccc2sc(C(=O)O)c(-c3nc4cc(C(N)=O)ccc4n3CCn3c(-c4c(C(=O)O)sc5ccnc(OC)c45)nc4cc(C(N)=O)ccc43)c12 [Example 7]  human STING (HAQ) (Homo sapiens (Human), UniProt Q86WV6, G230A/H232R/R293Q)       ΔTm at 100 µM             6.96

Please look at the following compound next.
Please state recorded ΔTm at 100 µM (tested on human STING (HAQ) (Homo sapiens (Human), UniProt Q86WV6, G230A/H232R/R293Q)) of CCOC(=O)c1sc2cccc(Cl)c2c1-c1nc2cc(C(N)=O)ccc2n1CCn1c(-c2c(C(=O)OCC)sc3cccc(Cl)c23)nc2cc(C(N)=O)ccc21 [Example A1] 0.36

----------
biological target: human HAQ isoform of STING (Homo sapiens (Human), UniProt Q86WV6, G230A/H232R/R293Q/R71H); experiment: THP-1 STING Lucia ISG reporter cell line assay; conditions: 24 h incubation, luminescence, normalized to ML RR-S2 CDA 40 μM; read-out: EC50 THP-I STING Lucia ISG cells
Sequence (Q86WV6 whole entry R71H/G230A/H232R/R293Q, canonical isoform): as the sequence (Q86WV6 whole entry H232R, canonical isoform) above, with R71H, G230A, R293Q counted along it
// reported pEC50 for each item listed
Quick note: pEC50 values are minus log10 of concentrations in mol/L.

COMPOUND	pEC50
Cc1cccc2sc(C(=O)O)c(-c3nc4cc(C(N)=O)ccc4n3CCn3c(-c4c(C(=O)O)sc5cccc(C)c45)nc4cc(C(N)=O)ccc43)c12 (single isomer, unassigned) [Example 15.2]	6.57

We next turn to a different compound, shown below.
Please report the recorded pEC50 for CCOC(=O)c1sc2c(F)ccc(OC)c2c1-c1nc2cc(C(N)=O)ccc2n1CCn1c(-c2c(C(=O)OCC)sc3c(F)ccc(OC)c23)nc2cc(C(N)=O)ccc21 [Example 12] . 5.29
